# Experimental Details: isobaric coefficient of expansion
# Study Conditions: 278.15 K; 10000 kPa; Liquid; DSC
Quantity: isobaric coefficient of expansion

Look over these answered cases.
• CCC#N [propanenitrile] = 0.0012 1/K
• CCC[N+](=O)[O-] [1-nitropropane] = 0.00103 1/K

**Query** What does the data say about its isobaric coefficient of expansion? Entry: C[N+](=O)[O-] [nitromethane]
**Result** 0.00114 1/K

**Query** So what's the measured isobaric coefficient of expansion for this one? CC[N+](=O)[O-] [nitroethane]
**Result** 0.0011 1/K

**Query** Value lookup for isobaric coefficient of expansion; key = N#Cc1ccccc1 [benzonitrile]
**Result** 0.000831 1/K

---

# Experimental Details: isobaric coefficient of expansion
# Study Conditions: 328.15 K; 15000 kPa; Liquid; DSC
Quick reference for isobaric coefficient of expansion among some molecules

# annotated cases, reported isobaric coefficient of expansion shown
- CCC#N: 0.00127 1/K
- CC[N+](=O)[O-]: 0.00113 1/K
- CCC[N+](=O)[O-]: 0.00107 1/K
- O=[N+]([O-])c1ccccc1: 0.000802 1/K
- C[N+](=O)[O-]: 0.00121 1/K

Read the next record carefully.
**Query** Recorded isobaric coefficient of expansion for N#Cc1ccccc1 , please?
**Result** 0.000819 1/K

---

# Experimental Details: isobaric coefficient of expansion
# Study Conditions: 298.15 K; 35000 kPa; Liquid; DSC
# isobaric coefficient of expansion per entry

- CCC[N+](=O)[O-]: 0.000941 1/K

**Query** Entry N#Cc1ccccc1 : reported isobaric coefficient of expansion = ?
**Result** 0.000775 1/K

**Query** Report isobaric coefficient of expansion for O=[N+]([O-])c1ccccc1 please.
**Result** 0.000752 1/K

**Query** What value of isobaric coefficient of expansion has been reported for the following molecule? C[N+](=O)[O-]
**Result** 0.00107 1/K

**Query** What value of isobaric coefficient of expansion has been reported for the following molecule? CC[N+](=O)[O-]
**Result** 0.00101 1/K

**Query** Please report the recorded isobaric coefficient of expansion for CCC#N .
**Result** 0.00108 1/K

---

# Experimental Details: isobaric coefficient of expansion
# Study Conditions: 348.15 K; 30000 kPa; Liquid; DSC
# reported isobaric coefficient of expansion; entries follow

Some solved cases for reference:
* O=[N+]([O-])c1ccccc1 | 0.000764 1/K
* C[N+](=O)[O-] | 0.00115 1/K
* CC[N+](=O)[O-] | 0.00107 1/K
* N#Cc1ccccc1 | 0.000788 1/K
* CCC[N+](=O)[O-] | 0.000996 1/K

Field: next compound
**Query** Sample CCC#N — what was its isobaric coefficient of expansion?
**Result** 0.00117 1/K

---

# Experimental Details: isobaric coefficient of expansion
# Study Conditions: 298.15 K; 50000 kPa; Liquid; DSC
Listing of entries alongside the reported isobaric coefficient of expansion.

* N#Cc1ccccc1 | 0.000749 1/K

**Query** Quick one: isobaric coefficient of expansion of CCC#N ?
**Result** 0.00101 1/K

---

# Experimental Details: isobaric coefficient of expansion
# Study Conditions: 288.15 K; 35000 kPa; Liquid; DSC
Quantity: isobaric coefficient of expansion

* CCC#N [propanenitrile] | 0.00107 1/K
* N#Cc1ccccc1 [benzonitrile] | 0.000772 1/K
* CCC[N+](=O)[O-] [1-nitropropane] | 0.000932 1/K
* C[N+](=O)[O-] [nitromethane] | 0.00106 1/K
* O=[N+]([O-])c1ccccc1 [nitrobenzene] | 0.000749 1/K

Then there is this molecule:
**Query** For the molecule shown here, CC[N+](=O)[O-] [nitroethane] , give the reported isobaric coefficient of expansion.
**Result** 0.00101 1/K
